Test system: MDA-MB-231
Experiment: cells
Conditions: Homo sapiens, MDA-MB-231, 72 h
Description: Antiproliferative activity against human MDA-MB-231 cells assessed as inhibition of cell proliferation incubated for 72 hrs by MTT assay
propertyLabel: IC50 (µM)

Known results for molecules:
molecule: CP(C)(=O)c1ccccc1Nc1nc(Nc2ccc(C(=O)NC3CCNCC3)c(F)c2)ncc1Cl
IC50 / µM: 8.69

molecule: CP(C)(=O)c1ccccc1Nc1nc(Nc2ccc(C(=O)NC3CCC(O)CC3)cc2)ncc1Cl (stereo not given)
IC50 / µM: 0.86

molecule: COc1cc(C(=O)NC2CCC(O)CC2)ccc1Nc1ncc(Cl)c(Nc2ccccc2P(C)(C)=O)n1 (stereo not given)
IC50 / µM: 2.49

molecule: COc1cc(C(=O)NC2CCNCC2)ccc1Nc1ncc(Cl)c(Nc2ccccc2P(C)(C)=O)n1
IC50 / µM: 1.34

molecule: CP(C)(=O)c1ccccc1Nc1nc(Nc2ccc(C(=O)N[C@@H]3CCNC3)cc2)ncc1Cl
IC50 / µM: 2.12

molecule: CP(C)(=O)c1ccccc1Nc1nc(Nc2ccc(C(=O)N[C@H]3CCNC3)cc2)ncc1Cl
IC50 / µM: 2.35

(P) CP(C)(=O)c1ccccc1Nc1nc(Nc2ccc(C(=O)NC3CCC(O)CC3)c(F)c2)ncc1Cl (stereo not given)
(Q) Cc1cc(Nc2ncc(Cl)c(Nc3ccccc3P(C)(C)=O)n2)ccc1C(=O)NC1CCC(O)CC1 (stereo not given)
(R) CNC(=O)c1ccccc1Nc1nc(Nc2ccc(N3CCOCC3)cc2OC)ncc1Cl
(S) CP(C)(=O)c1ccccc1Nc1nc(Nc2ccc(C(=O)NC3CCNCC3)cc2)ncc1Cl
Rank the items in ascending order with respect to IC50. Use the labels to give the requested order.
R, S, P, Q
(R: 1.02 µM, S: 1.62 µM, P: 2.48 µM, Q: 7.53 µM)
